- assayMethodText: Solubility of the compound at pH 7.4
- Assay type: physicochemical
- testConditions: buffer
parameter: solubility (µg/mL)

1) O=C(CN1CCCC2=C1C(=O)N(C1CC1)C2=O)Nc1ccc(-c2cccnc2)nn1    60

[P] C[C@H](Nc1ccc(-c2ccnn2C)nc1)C(=O)Nc1ccc(-c2cccnc2)cn1
[Q] CN1C(=O)C2=C(C1=O)N(CC(=O)Nc1ccc(-c3nccs3)cc1)CCC2
Q: Select one. Lower solubility: P or Q Return value: the label identifying the chosen record.
Ans: Q
(Q: 15 µg/mL, P: 73 µg/mL)

###

- studyTarget: Poly [ADP-ribose] polymerase tankyrase-1 (Homo sapiens, UniProt O95271)
- Sequence (O95271 whole entry): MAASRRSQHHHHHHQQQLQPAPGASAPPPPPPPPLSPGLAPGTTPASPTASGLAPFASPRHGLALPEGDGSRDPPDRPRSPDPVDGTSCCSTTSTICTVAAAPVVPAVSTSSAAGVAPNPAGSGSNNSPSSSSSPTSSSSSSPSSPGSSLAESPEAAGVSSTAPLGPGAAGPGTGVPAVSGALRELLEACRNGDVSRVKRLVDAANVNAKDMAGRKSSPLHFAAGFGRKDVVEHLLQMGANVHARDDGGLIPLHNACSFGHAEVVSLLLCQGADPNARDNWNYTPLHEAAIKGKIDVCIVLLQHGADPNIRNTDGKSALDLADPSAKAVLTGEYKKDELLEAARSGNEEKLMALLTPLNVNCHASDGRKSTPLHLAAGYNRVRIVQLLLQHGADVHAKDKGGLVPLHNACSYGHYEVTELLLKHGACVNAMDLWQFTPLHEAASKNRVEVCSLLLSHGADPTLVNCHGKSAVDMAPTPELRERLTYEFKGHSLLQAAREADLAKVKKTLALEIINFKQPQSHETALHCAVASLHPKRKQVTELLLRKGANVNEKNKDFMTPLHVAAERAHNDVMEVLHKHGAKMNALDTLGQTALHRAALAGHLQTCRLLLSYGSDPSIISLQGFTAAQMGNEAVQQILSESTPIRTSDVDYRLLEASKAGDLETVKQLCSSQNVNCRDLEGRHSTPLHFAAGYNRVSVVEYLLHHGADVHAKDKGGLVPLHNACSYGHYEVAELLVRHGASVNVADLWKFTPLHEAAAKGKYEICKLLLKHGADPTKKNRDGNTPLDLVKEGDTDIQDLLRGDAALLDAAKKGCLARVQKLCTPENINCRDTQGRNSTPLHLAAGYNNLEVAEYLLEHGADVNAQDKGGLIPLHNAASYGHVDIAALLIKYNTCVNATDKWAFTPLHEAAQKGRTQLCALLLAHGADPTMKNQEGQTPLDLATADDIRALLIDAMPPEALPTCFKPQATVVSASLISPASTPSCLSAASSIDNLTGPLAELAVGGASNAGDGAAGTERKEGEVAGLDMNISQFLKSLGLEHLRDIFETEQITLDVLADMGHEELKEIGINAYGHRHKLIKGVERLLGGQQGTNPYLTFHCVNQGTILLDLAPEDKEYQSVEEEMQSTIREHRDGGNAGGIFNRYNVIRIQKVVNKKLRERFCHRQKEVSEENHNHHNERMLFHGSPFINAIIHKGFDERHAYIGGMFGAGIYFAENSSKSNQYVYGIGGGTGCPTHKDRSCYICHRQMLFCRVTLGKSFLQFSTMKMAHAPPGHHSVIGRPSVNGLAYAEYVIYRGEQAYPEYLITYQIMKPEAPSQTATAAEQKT
- assayMethodText: Inhibition of TNKS1 (unknown origin)
parameter: IC50 (nM)
Quick reminder: number only, in nM, skip the unit.

Q: What value of IC50 has been recorded for this entry: `O=C(CCC1CCCC1)Nc1nnc2n1CCS2`
Ans: 1900
